Each record here notes measured half-life.
method: Pharmacokinetic data in CD-1 mice after oral administration
Format: in vivo
run.parameters: mouse, serum, Table 7: CD-1 mice, nominal dose 5.10 mg/kg Cmpd. A or 6.57-8.40 mg/kg DV salt, analyte: dosed derivative (DV)
# output: numeric value plus its unit

INPUT: Dear colleague, please send me the reported half-life for FC(F)(F)c1ccc(/C=C/COC2(c3ccc(Cl)cc3)c3ccccc3C3=NCCN32)cc1 (centres unmarked) when you can.
OUTPUT: 3.95 h

INPUT: Please report half-life for the following compound: CC(C)/C=C/COC1(c2ccc(Cl)cc2)c2ccccc2C2=NCCN21 (centres unmarked)
OUTPUT: 1.3 h

INPUT: Fill in half-life for record COc1ccc(COC2(c3ccc(Cl)cc3)c3ccccc3C3=NCCN32)cc1OC (centres unmarked)
OUTPUT: 0.496 h

INPUT: Dear colleague, please send me the reported half-life for FC(F)(F)c1ccc(COC2(c3ccc(Cl)cc3)c3ccccc3C3=NCCN32)cc1 (centres unmarked) when you can.
OUTPUT: 2.72 h

INPUT: Annotate the compound Clc1ccc(COC2(c3ccc(Cl)cc3)c3ccccc3C3=NCCN32)cc1 (centres unmarked) with its measured half-life.
OUTPUT: 3.24 h
